Attribution: patent US7056679B2

# System: lactate dehydrogenase (LDH)
# procedure_details: ELISA analysis of phage on LDH (irrelevant, non-specific target)
# Format: binding
# condition_notes: peptide binding to LDH polypeptide (non-specific binding); phage ELISA units read at 405 nm
No end group written: not given here.
value_type: LDH (OD)
Provide only the numeric value, understood in OD.

Exam item: Please give the measured LDH (OD) for this substance: V#CR#LCRLCRFSMRCGGLSLVLGSAAAFFCEVFVGFCV (VCRLCRLCRFSMRCGGLSLVLGSAAAFFCEVFVGFCV; not fully specified (residues 1, 3); cysteine pairing not given here; also: TAA stop codons (#) after V1 and after R3; listed as Escherichia coli) [DGI-2-40F-4-E1130]
Marked response: 0.9

Exam item: Subsequent entry: MGQGFHYNRQPYMSHQCYAFTFSTPFLDGDRIPHGVSRGL (DGI-2-40F-3-D1; listed as Escherichia coli)
Marked response: 0.8

Exam item: Subsequent entry: VAFGEQJRVAMAGTLWQRWR (VAFGEQIRVAMAGTLWQRWR; not fully specified; non-natural residue J; DGI-2-20R-3-D5; listed as Escherichia coli)
Marked response: 1.1

Exam item: Subsequent entry: QGSAHVVRPPGVYDVPWKVGMFFHPQNWPNSWGRAYFRSG (DGI-2-40F-3-D12; listed as Escherichia coli)
Marked response: 1.0

Proceeding to the next substance to report its LDH (OD).
Exam item: Please give the measured LDH (OD) for this substance: VLQRSLWKDWVDGVMHGGGSRGV (DGI-2-20R-3-A7; listed as Escherichia coli)
Marked response: 0.9
